Assay: in vitro
Settings: hamster, microsomes, pH 7.4
Catalogue of microsomal CLint at 1 µM readings, one per entry.
Could you kindly put the unit after your number?

// worked examples, microsomal CLint at 1 µM included
COc1cccc2[nH]c(C(=O)N[C@@H](Cc3cccc(F)c3)C(=O)N[C@@H](C[C@@H]3CCNC3=O)C(=O)COc3c(F)c(F)c(CO)c(F)c3F)cc12 [compound 1] :: 2370 µL/min/mg
CC(C)(C)[C@H](NC(=O)C(F)(F)F)C(=O)N1C[C@H]2[C@@H]([C@H]1C(=O)N[C@@H](C[C@@H]1CCNC1=O)C(=O)COc1c(F)c(F)c(CO)c(F)c1F)C2(C)C [compound 7] :: 803 µL/min/mg
COc1cccc2[nH]c(C(=O)N[C@@H](Cc3cccc(F)c3)C(=O)N[C@@H](C[C@@H]3CCNC3=O)C(=O)COc3c(F)c(F)c(C(C)O)c(F)c3F)cc12 (some centres unmarked) [compound 8] :: 1290 µL/min/mg
COc1cccc2[nH]c(C(=O)N[C@@H](Cc3cccc(F)c3)C(=O)N[C@@H](C[C@@H]3CCNC3=O)C(=O)COc3c(F)c(F)c(C(C)(C)O)c(F)c3F)cc12 [compound 10] :: 500 µL/min/mg

// sample CC(C)(O)c1c(F)c(F)c(OCC(=O)[C@H](C[C@@H]2CCNC2=O)NC(=O)[C@@H]2[C@@H]3[C@H](CN2C(=O)[C@@H](NC(=O)C(F)(F)F)C(C)(C)C)C3(C)C)c(F)c1F [compound 14] , its microsomal CLint at 1 µM was 377 µL/min/mg
